system: A498 renal; assay: NCI tumour cell line growth inhibition, 48 h
endpoint: TGI (µM)
Quick note: give the figure in µM, leave out the unit.

C=C(C)[C@@H]1CC[C@]2(C(=O)O)CC[C@]3(C)[C@H](CC[C@@H]4[C@@]5(C)CC(=O)C(C)(C)[C@@H]5CC[C@]43C)[C@@H]12 : 17.2
CN1C(=O)c2c(ccc3c2OCO3)C2C(O)Cc3cc4c(cc3C21)OCO4 (stereo not given) : 9.29

Given O=C1c2c(F)c(F)c(F)c(F)c2SC2=NCCN12 , state its recorded TGI.
32.9

Given CCOc1ccc2nc(NC(=O)C(=O)C(C(=O)c3ccccc3-c3ccccc3)C3OC(=O)c4ccccc43)sc2c1 (stereo not given) , state its recorded TGI.
48.1

Given COc1cc2c(cc1OCCCN1CCN(CCCOc3cc4c(cc3OC)C(=O)N3CCC[C@H]3C=N4)CC1)C=CC(C)(C)O2 , state its recorded TGI.
2.37

Given COc1cccc(C2CC(c3cc(OC)c(OC)c(OC)c3)=NN2)c1 (stereo not given) , state its recorded TGI.
38.6

Given CNCc1cccc2c1OCCOCCN(C)C(=O)CN(C)S(=O)(=O)c1ccc(cc1)-c1cnc(N)c(n1)C(=O)N2 , state its recorded TGI.
7.34

Given O=C(/C=C/c1ccc(B(O)O)cc1)/C=C/c1ccc(B(O)O)cc1 , state its recorded TGI.
10.3

Given CC(C)(C)OC(=O)NCCNC1=CC(=O)c2nc3ccccc3c3ccnc1c23 , state its recorded TGI.
29.2

Given CCOC(=O)c1cccc(NC(=O)CCl)c1 , state its recorded TGI.
29.2

Given CN(C)c1nc2sc3c(c2c(=O)o1)CCCC3 , state its recorded TGI.
66.8

Given CO[C@H](C(=O)[C@@H](O)[C@@H](C)O)[C@@H]1Cc2cc3cc(O[C@H]4C[C@@H](O[C@H]5C[C@@H](O)[C@H](O)C(C)O5)[C@H](O)C(C)O4)c(C)c(O)c3c(O)c2C(=O)[C@H]1O[C@H]1C[C@@H](O[C@H]2C[C@@H](O[C@H]3C[C@@H](OC)[C@H](O)C(C)O3)[C@@H](O)C(C)O2)C(O)(O)C(C)O1 (stereo not given in full) , state its recorded TGI.
0.115

Given O=S(=O)(Nc1ncccn1)c1ccc(N=Nc2ccc(O)c3ncccc23)cc1 , state its recorded TGI.
27.2

Given Cc1nc2sccn2c1/C=C1/C(=O)Nc2ccccc21 , state its recorded TGI.
9.72

* * *

Examples of compounds with documented TGI follow.
tested on: HL-60(TB) leukemia; assay: NCI tumour cell line growth inhibition, 48 h

Record excerpt, results attached:
COC(=O)N1CC2(CO)C3CC=C(C(=O)Nc4ccccc4Br)C2C1C3Br (centres undefined) : > 50 µM
O=S(=O)(Oc1ccc2oc3ccccc3c2c1-c1c(OS(=O)(=O)C(F)(F)F)ccc2oc3ccccc3c12)C(F)(F)F : > 100 µM
CC(=O)N1CCN(C2=Nc3ccccc3CO2)C1=S : > 100 µM
NNC(=S)N/N=C(\CCCC(=O)NCCc1ccccc1)CC(=O)c1ccccc1 : > 100 µM
N=C(c1ccccc1)N(c1ccccc1)c1ccccc1 : > 100 µM
CCc1nn(CN2CCN(C)CC2)c(=S)n1/N=C\c1ccc(-c2ccc([N+](=O)[O-])cc2)o1 : > 100 µM

Given O=C(CSc1nnc(-c2ccc(N=Cc3ccc(Cl)cc3)cc2)o1)Nc1ccccc1Cl , state its recorded TGI.
> 100 µM

Given O=c1cnn(C/C=C\CO)c(=O)[nH]1 , state its recorded TGI.
> 100 µM

Given CO[C@H](C(=O)[C@@H](O)[C@@H](C)O)[C@@H]1Cc2cc3cc(O[C@H]4C[C@@H](O[C@H]5C[C@@H](O)[C@H](O)C(C)O5)[C@H](O)C(C)O4)c(C)c(O)c3c(O)c2C(=O)[C@H]1O[C@H]1C[C@@H](O[C@H]2C[C@@H](O[C@H]3C[C@@H](OC)[C@H](O)C(C)O3)[C@@H](O)C(C)O2)C(O)(O)C(C)O1 (some centres undefined) , state its recorded TGI.
> 25 µM
